Reported pIC50 values for the following compounds.
Biological target: human FLT3 (Homo sapiens)
Construct: a construct expressing the human FLT3 (564-993) with an amino terminal GST tag
Sequence (P36888 564-993): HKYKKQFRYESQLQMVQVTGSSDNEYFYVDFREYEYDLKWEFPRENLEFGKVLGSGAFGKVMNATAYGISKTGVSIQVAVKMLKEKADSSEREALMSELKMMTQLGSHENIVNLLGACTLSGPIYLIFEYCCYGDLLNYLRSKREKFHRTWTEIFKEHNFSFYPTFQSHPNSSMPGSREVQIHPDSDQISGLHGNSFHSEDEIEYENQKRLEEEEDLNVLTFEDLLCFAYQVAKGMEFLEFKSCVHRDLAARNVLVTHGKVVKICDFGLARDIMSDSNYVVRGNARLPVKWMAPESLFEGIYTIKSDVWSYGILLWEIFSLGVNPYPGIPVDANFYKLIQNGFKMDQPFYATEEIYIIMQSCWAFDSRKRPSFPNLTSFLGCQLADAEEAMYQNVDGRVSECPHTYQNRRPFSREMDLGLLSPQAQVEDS
Assay: FLT3 kinase assay (DELFIA enzyme inhibition)
pIC50: −log10 of the molar value.

Compound | pIC50
CN1CCN(C(=O)c2ccc(Nc3oc(-c4c(F)cccc4F)nc3C(N)=O)cc2)CC1CCO (centres unmarked) | > 5.00
NC(=O)c1nc(-c2c(F)cccc2F)oc1Nc1ccc(C(=O)NC2CCNCC2)cc1 | > 5.00
NC(=O)c1nc(-c2c(F)cccc2F)oc1Nc1ccc(-c2nnn[nH]2)cc1 | > 5.00
CNC(=O)N1CCN(c2ccc(-c3oc(-c4c(F)cccc4F)nc3C(N)=O)cc2)CC1 | > 5.00
NC(=O)c1nc(Nc2cnn(Cc3ccccc3)c2)oc1-c1ccc(N2CCNCC2)cc1 | > 5.00
NC(=O)c1nc(-c2c(F)cccc2N2CCC(O)CC2)oc1-c1ccc(OCCN2CCC(O)CC2)cc1 | > 4.00
NC(=O)c1nc(-c2c(F)cccc2F)oc1Nc1ccc(C(=O)N2CCC[C@H]2CO)cc1 | > 5.00
NC(=O)c1nc(-c2c(F)cccc2F)oc1-c1ccc(N2CCNCC2)cc1 | > 5.00
NC(=O)c1nc(-c2c(F)cccc2F)oc1Nc1ccc(N2CCNCC2)cc1 | > 5.00
COc1ccc(-c2oc(-c3ccccc3F)nc2C(N)=O)cc1 | > 4.00
NC(=O)c1nc(-c2c(F)cccc2F)oc1Nc1ccc(C(=O)N2CCCC(O)C2)cc1 (centres unmarked) | > 5.00
NC(=O)c1nc(-c2c(F)cccc2F)oc1-c1ccc(OCCN2CCCCC2)cc1 | > 5.00
NC(=O)c1nc(-c2c(F)cccc2F)oc1-c1ccc(OCCN2CCN(CCO)CC2)cc1 | > 5.00
NC(=O)c1nc(-c2c(F)cccc2F)oc1-c1ccc(OCC(O)CN2CCC(O)CC2)cc1 (centres unmarked) | > 5.00
NC(=O)c1nc(-c2c(F)cccc2F)oc1Nc1ccc(-n2ccnc2)cc1 | > 5.00
CN1CCN(CCOc2ccc(-c3oc(-c4c(F)cccc4F)nc3C(N)=O)cc2)CC1 | > 4.00
COc1ccc(-c2oc(-c3cn[nH]c3)nc2C(N)=O)cc1 | > 4.00

###

Target: human Aurora A (Homo sapiens, UniProt O14965)
Construct: Histidine tag (N); host or cells: Sf9 insect cells (baculovirus)
Sequence (O14965 1-403): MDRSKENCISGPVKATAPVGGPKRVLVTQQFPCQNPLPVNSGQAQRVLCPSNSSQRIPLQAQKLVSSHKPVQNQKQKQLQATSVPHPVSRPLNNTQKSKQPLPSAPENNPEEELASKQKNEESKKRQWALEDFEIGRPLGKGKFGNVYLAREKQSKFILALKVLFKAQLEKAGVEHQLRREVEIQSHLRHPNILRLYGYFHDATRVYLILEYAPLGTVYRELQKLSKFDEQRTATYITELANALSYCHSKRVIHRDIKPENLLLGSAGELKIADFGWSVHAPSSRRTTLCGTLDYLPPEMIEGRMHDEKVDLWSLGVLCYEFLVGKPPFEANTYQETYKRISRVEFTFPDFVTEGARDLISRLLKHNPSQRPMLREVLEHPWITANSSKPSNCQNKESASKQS
Test: Aurora A kinase assay (DELFIA enzyme inhibition)
Type: biochemical
Conditions: read-out: Aurora A IC50
pIC50: −log10 of the molar value.
Endpoint label: pIC50

Molecule | Tgt | Experimental value
NC(=O)c1nc(-c2ccc3cc[nH]c3c2)oc1-c1ccc(N2CCNCC2)cc1 | human Aurora A (Homo sapiens, UniProt O14965) | > 5.00
NC(=O)c1nc(-c2c(Cl)cccc2Cl)oc1Nc1ccc(N2CCNCC2)cc1 | human Aurora A (Homo sapiens, UniProt O14965) | > 5.00
CN1CCN(C(=O)c2ccc(Nc3oc(-c4c(F)cccc4F)nc3C(N)=O)cc2)CC1CCO (centres unmarked) | human Aurora A (Homo sapiens, UniProt O14965) | > 5.00
CN1CCN(CCOc2ccc(-c3oc(-c4c(F)cccc4N4CCN(C)CC4)nc3C(N)=O)cc2)CC1 | human Aurora A (Homo sapiens, UniProt O14965) | > 4.00
NC(=O)c1nc(-c2c(F)cccc2F)oc1-c1ccc(OCC(O)CN2CCC(O)CC2)cc1 (centres unmarked) | human Aurora A (Homo sapiens, UniProt O14965) | > 5.00
COc1ccc(Nc2nc(C(N)=O)c(-c3ccc(OC)cc3)o2)cc1 | human Aurora A (Homo sapiens, UniProt O14965) | > 4.00
NC(=O)c1nc(-c2c(F)cccc2F)oc1-c1ccsc1 | human Aurora A (Homo sapiens, UniProt O14965) | > 4.00
COc1ccc(-c2nc(-c3cccnc3)[nH]c2C(N)=O)cc1 | human Aurora A (Homo sapiens, UniProt O14965) | > 4.00
NC(=O)c1nc(-c2c(F)cccc2F)oc1Nc1ccc(N2CCCNCC2)cc1 | human Aurora A (Homo sapiens, UniProt O14965) | > 5.00
NC(=O)c1nc(-c2c(F)cccc2F)oc1Nc1ccc(-n2ccnc2)cc1 | human Aurora A (Homo sapiens, UniProt O14965) | > 5.00
NC(=O)c1nc(-c2c(F)cccc2F)oc1-c1ccc(N2CCNCC2)cc1 | human Aurora A (Homo sapiens, UniProt O14965) | > 5.00
CN(C)S(=O)(=O)c1ccc(Nc2oc(-c3c(F)cccc3F)nc2C(N)=O)cc1 | human Aurora A (Homo sapiens, UniProt O14965) | > 5.00
CC(=O)N1CCN(c2ccc(-c3oc(-c4c(F)cccc4F)nc3C(N)=O)cc2)CC1 | human Aurora A (Homo sapiens, UniProt O14965) | > 5.00
COc1ccc(-c2nc(-c3ccc(OC)cc3)c(C(N)=O)[nH]2)cc1 | human Aurora A (Homo sapiens, UniProt O14965) | > 4.00
NC(=O)c1nc(-c2c(F)cccc2F)oc1Nc1ccc(C(=O)N[C@H]2CCCNC2)cc1 | human Aurora A (Homo sapiens, UniProt O14965) | > 5.00
CN1CCN(CC(O)COc2ccc(-c3oc(-c4c(F)cccc4F)nc3C(N)=O)cc2)CC1 (centres unmarked) | human Aurora A (Homo sapiens, UniProt O14965) | > 5.00
CN(C)CCOc1ccc(-c2oc(-c3c(F)cccc3F)nc2C(N)=O)cc1 | human Aurora A (Homo sapiens, UniProt O14965) | > 5.00

###

Target: human Aurora A (Homo sapiens, UniProt O14965)
Construct: Histidine tag (N); host or cells: Sf9 insect cells (baculovirus)
Sequence (O14965 1-403): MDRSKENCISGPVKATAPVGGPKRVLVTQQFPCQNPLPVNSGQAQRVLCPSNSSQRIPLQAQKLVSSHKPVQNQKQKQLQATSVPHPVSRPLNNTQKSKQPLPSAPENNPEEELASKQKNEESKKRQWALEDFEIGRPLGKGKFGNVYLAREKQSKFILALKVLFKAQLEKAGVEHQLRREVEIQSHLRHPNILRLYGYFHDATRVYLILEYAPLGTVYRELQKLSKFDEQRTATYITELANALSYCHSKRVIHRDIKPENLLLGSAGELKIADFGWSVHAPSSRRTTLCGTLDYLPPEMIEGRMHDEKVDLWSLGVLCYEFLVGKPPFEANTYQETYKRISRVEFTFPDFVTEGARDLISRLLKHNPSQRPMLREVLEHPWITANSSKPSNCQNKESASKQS
Test: Aurora A kinase assay (DELFIA enzyme inhibition)
Format: biochemical
Details: read-out: Aurora A IC50
Method: The protein was purified by one-step affinity chromatography using nickel-agarose […] Assay reactions are set up in a 25 uL final volume on a 96 well plate. […] The reaction is allowed to proceed for 30 minutes at room temperature before stopping with 100 μL Stop solution comprising of 100 mM EDTA, 1×BSA blocker in TBS (Perbio) and 0.05% Surfact-Amps20 (Perbio). […]

Chemical smiles | IC50
CNC(=O)N1CCN(c2ccc(-c3oc(-c4c(F)cccc4F)nc3C(N)=O)cn2)CC1 | < 10 µM
NC(=O)c1nc(-c2c(F)cccc2F)oc1-c1ccc(OCCCN2CCOCC2)cc1 | < 10 µM
COc1ccc(-c2nc(-c3ccccc3Cl)[nH]c2C(N)=O)cc1 | < 100 µM
NC(=O)c1nc(-c2c(F)cccc2F)oc1Nc1ccc(CN2CCCCC2)cc1 | < 10 µM
